# MEASUREMENT_DESCRIPTION: qHTS assay to identify small molecule antagonists of the estrogen receptor alpha (ER-alpha) signaling pathway using the BG1 cell line (AID 743080);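 further: BG1 cells stimulated with 17beta-estradiol alongside compound; nearly all actives have a fitted effect of over 25% in size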; further: potency means the concentration at half of the fitted maximal effect
# RECORDED_CONDITIONS: BG1Luc4E2 ERE-luciferase antagonist mode, luminescence; series mostly up to 70.3 µM
Results filed as inconclusive are left out. Active and inactive are the calls of the source. The call rests on the fitted dose curve.
QUANTITY_MEASURED: Potency

// solved cases for Potency follow
> print(dat)
                                 cpd.smiles  quantity.measured            result
1     Nc1ccc(C(=O)OCCCOC(=O)c2ccc(N)cc2)cc1            Potency          inactive
2               CCCCCC=CCC=CCCCCCCCC(=O)OCC            Potency          inactive
3  Nc1nc(Cl)nc2c1ncn2[C@@H]1O[C@H](CO)[C@@H](O)[C@@H]1F            Potency  3.76 µM (active)
4  CCCOc1ccc(S(=O)(=O)N2CCN(CC)CC2)cc1-c1nc2c(CC)n(Cc3ccccn3)nc2c(=O)[nH]1            Potency          inactive
5                               CC(C)C(=O)O            Potency          inactive

Please find the next compound below.
Data request: # input compound: CCCCN(CCCC)C(=S)SSC(=S)N(CCCC)CCCC ; wanted: its Potency
Data returned: inactive
